Every entry's value here was drawn from patent US10807993B2.

test system: HT-29 cells; assay: Inhibition test for sphere formation assay of cancer cells; format: cell-based; conditions: sphere culture, summary in words
assay-metric: activity for inhibiting cell proliferation in the sphere culture condition

Worked set:
compound	result
Cc1nccn1CCN1CCC2(CC1)COC1c3cc(Cl)ccc3OC(C)(C)C1C2 (centres unmarked) [Example 47]	potent activity
Cc1nccn1CCN1CCC2(CC1)COC1c3ccc(Cl)cc3OC(C)(C)C1C2 (centres unmarked) [Example 49]	potent activity
CC1(C)Oc2ccc(Cl)cc2C2OCC3(CCN(CCn4ccnc4)CC3)CC21 (centres unmarked)	potent activity
CC1(C)Oc2cc(Cl)ccc2C2OCC3(CCN(CCn4ccnc4CO)CC3)CC21 (centres unmarked)	potent activity

Data request: Can you look up the measured activity for inhibiting cell proliferation in the sphere culture condition of CC1(C)Oc2ccc(F)cc2C2OCC3(CCN(CCn4ccnc4)CC3)CC21 (centres unmarked) for me?
Data returned: potent activity

###

Below are compounds with their pIC50 as measured on hERG (Homo sapiens (Human), UniProt Q12809).
Sequence (Q12809 whole entry): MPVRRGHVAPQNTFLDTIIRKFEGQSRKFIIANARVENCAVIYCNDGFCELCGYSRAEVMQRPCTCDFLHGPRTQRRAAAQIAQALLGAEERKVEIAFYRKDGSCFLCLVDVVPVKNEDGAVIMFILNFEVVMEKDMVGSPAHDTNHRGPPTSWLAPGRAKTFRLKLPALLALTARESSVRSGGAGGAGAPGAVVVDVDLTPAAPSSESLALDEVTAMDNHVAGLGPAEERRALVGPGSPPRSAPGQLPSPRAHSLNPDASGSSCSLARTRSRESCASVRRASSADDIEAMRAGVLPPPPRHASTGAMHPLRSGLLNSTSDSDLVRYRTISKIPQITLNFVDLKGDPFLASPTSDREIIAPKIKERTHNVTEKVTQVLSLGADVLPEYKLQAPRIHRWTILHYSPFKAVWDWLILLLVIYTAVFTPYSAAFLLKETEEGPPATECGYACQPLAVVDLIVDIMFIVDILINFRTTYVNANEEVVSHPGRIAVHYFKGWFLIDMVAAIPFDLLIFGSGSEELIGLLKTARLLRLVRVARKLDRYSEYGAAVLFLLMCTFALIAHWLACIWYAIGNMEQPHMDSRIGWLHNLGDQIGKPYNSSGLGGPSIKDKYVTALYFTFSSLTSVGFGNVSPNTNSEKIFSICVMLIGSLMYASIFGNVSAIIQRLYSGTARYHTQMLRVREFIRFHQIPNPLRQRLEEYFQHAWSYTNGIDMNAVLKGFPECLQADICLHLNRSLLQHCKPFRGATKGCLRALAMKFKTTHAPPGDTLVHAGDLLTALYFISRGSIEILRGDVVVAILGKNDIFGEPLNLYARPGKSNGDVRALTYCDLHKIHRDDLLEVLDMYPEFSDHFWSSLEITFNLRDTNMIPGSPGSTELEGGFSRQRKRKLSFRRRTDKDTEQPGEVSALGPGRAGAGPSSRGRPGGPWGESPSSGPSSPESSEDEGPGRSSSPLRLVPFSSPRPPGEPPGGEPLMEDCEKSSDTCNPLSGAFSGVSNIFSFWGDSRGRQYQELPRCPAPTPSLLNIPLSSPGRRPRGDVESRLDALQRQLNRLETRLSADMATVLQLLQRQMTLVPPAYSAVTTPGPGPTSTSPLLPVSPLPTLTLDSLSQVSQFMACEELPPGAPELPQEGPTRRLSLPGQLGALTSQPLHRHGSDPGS
# pIC50 = -log10(concentration in molar units)

Worked set:
compound	pIC50
Cc1nccn1CC(=O)N1CCC2(CC1)COC1c3cc(Cl)ccc3OC(C)(C)C1C2 (single isomer, unassigned)	6.70
Cc1nccn1CCN1CCC2(CC1)COC1c3cc(F)ccc3OC(C)(C)C1C2 (centres unmarked) [Example 45]	6.40
Cc1nccn1CCN1CCC2(CC1)COC1c3cc(F)ccc3OC(C)(C)C1C2 (centres unmarked) [Example 43]	6.00

Data request: Can you look up the measured pIC50 of CC1(C)Oc2ccc(N=[N+]=[N-])cc2C2OCC3(CCN(C(=O)Cn4ccnc4C#N)CC3)CC21 (centres unmarked) for me?
Data returned: 5.31

Data request: Can you look up the measured pIC50 of Cc1nc(CO)cn1CCN1CCC2(CC1)COC1c3ccc(Cl)cc3OC(C)(C)C1C2 (centres unmarked) for me?
Data returned: 5.96

Data request: Can you look up the measured pIC50 of CC1(C)Oc2ccc(Cl)cc2C2OCC3(CCN(C(=O)Cn4ccnc4CO)CC3)CC21 (centres unmarked) for me?
Data returned: 5.80

Data request: Can you look up the measured pIC50 of CC1(C)Oc2ccc(Cl)cc2C2OCC3(CCN(C(=O)Cn4cnc(C(F)(F)F)c4)CC3)CC21 (centres unmarked) for me?
Data returned: 5.52

Data request: Can you look up the measured pIC50 of CC1(C)Oc2ccc(Cl)cc2C2OCC3(CCN(C(=O)Cn4ccnc4C#N)CC3)CC21 (centres unmarked) for me?
Data returned: 5.54

###

biological target: hERG (Homo sapiens (Human), UniProt Q12809); assay: Test for evaluating hERG inhibition (QPatch HT, CHO cell strain stably expressing hERG); conditions: hERG IC50 (Test 2) divided by HT-29 sphere IC50 (Test 1)
assay-metric: hERG/HT-29

Worked set:
molecule	hERG/HT-29
Cc1nccn1CCN1CCC2(CC1)COC1c3cc(Cl)ccc3OC(C)(C)C1C2 (stereo not shown) [Example 48]	>80
CC1(C)Oc2cc(Cl)ccc2C2OCC3(CCN(CCn4ccnc4)CC3)CC21 (stereo not shown) [Example 41]	>70
Cc1nc[nH]c1CN1CCC2(CC1)COC1c3ccc(Cl)cc3OCC1C2 (single isomer, unassigned) [Example 64a]	>60

For the next question, use this molecule.
Data request: Can you look up the measured hERG/HT-29 of Cc1nc[nH]c1CN1CCC2(CC1)COC1c3ccc(Cl)cc3OC(C)(C)C1C2 (stereo not shown) [Example 20] for me?
Data returned: >140
